- experimental.system: T1, CRBN, Q96SW2;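 also: pooled lentiviral library of zinc finger degron-EGFP fusions in mCherry-positive Jurkat cells, FACS-sorted after compound exposure, with degron abundance counted by next-generation sequencing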
- T1 chain: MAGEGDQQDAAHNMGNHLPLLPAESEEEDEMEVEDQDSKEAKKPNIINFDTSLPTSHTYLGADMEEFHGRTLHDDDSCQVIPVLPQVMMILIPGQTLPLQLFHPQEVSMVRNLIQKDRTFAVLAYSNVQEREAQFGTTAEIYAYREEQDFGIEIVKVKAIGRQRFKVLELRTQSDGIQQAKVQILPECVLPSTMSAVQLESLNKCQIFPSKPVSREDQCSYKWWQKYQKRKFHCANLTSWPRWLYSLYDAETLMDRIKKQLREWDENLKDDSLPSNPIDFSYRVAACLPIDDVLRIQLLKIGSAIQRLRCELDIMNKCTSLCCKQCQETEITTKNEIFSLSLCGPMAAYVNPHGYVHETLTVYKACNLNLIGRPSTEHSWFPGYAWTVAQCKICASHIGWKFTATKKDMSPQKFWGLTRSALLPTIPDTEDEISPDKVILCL
- experimental.protocol: log2 fold change of degron read counts, EGFP-low vs EGFP+ sorted cells (limma voom), compound-induced degradation; higher = more compound-induced degradation of the degron-EGFP fusion; degrons are variants of IKZF1/3 zinc finger 2; compound dose not given here
- protocol.conditions: Jurkat; 18 h; compound: thalidomide
The full ranking holds about 8,300 sequences; the median of “log2 fold change of degron read counts, EGFP-low vs EGFP+ sorted cells (limma voom), compound-induced degradation” is about -1.1, and the highest 2% start at about 3.2. Only a selection was taken, and the highest values are over-represented in it overall.
// reported log2 fold change of degron read counts per item
The response must contain the number and no unit.

FKCNICGAKFTQKGNLLRHIKL [46F_47K_49N_50I_52G_53A_54K_55F_67L_, Q9UKT9]    -2.17
FLCNQCGADFTQKGNLLRHIKL [46F_47L_49N_50Q_52G_53A_54D_55F_67L_, Q9UKT9]    -2.29
FACEICGHNFTQKGNLLRHIKL [46F_47A_49E_50I_52G_53H_54N_55F_67L_, Q9UKT9]    -3.1
FECPICGARFTQKGNLLRHIKL [46F_47E_49P_50I_52G_53A_54R_55F_67L_, Q9UKT9]    3.37
FQCPICGALFTQKGNLLRHIKL [46F_47Q_49P_50I_52G_53A_54L_55F_67L_, Q9UKT9]    3.37

Could you share which log2 fold change of degron read counts value was measured for FWCNQCGHTFTQKGNLLRHIKL [46F_47W_49N_50Q_52G_53H_54T_55F_67L_, Q9UKT9] ?
-1.67

# iterate: FGCEICGREFTQKGNLLRHIKL [46F_47G_49E_50I_52G_53R_54E_55F_67L_, Q9UKT9]
-2.84

# iterate: FYCDICGAVFTQKGNLLRHIKL [46F_47Y_49D_50I_52G_53A_54V_55F_67L_, Q9UKT9]
-1.18
